Origin of values: ChEMBL document CHEMBL3763146

# TEST_NAME: Drug recovery in bile duct cannulated rat bile at 5 mg/kg, iv measured over 48 hrs
# Assay type: ADME, organism-based
# EXPERIMENTAL_PARAMETERS: read-out: Drug recovery
PROPERTY_LABEL: dose excreted at 48 h (%)
Hi! Could you send only the number? It should be in %, unit omitted.

Q) Provide only the value of recorded dose excreted at 48 h for O=C(Nc1ccc(C[C@@H]2CC[C@H]([C@H](O)c3ccccc3)N2)cc1)[C@@H]1CCc2nccc(=O)n21 [VIBEGRON]
A) 33

====

Examples of molecules with documented pEC50 follow.
# SYSTEM_TESTED: Beta-3 adrenergic receptor (Homo sapiens, UniProt P13945)
# TEST_NAME: Agonist activity at human beta3 adrenergic receptor expressed in CHO cells assessed as accumulation of cAMP after 30 mins by TR-FRET assay
# Format: functional, cell-based
# Sequence (P13945 whole entry): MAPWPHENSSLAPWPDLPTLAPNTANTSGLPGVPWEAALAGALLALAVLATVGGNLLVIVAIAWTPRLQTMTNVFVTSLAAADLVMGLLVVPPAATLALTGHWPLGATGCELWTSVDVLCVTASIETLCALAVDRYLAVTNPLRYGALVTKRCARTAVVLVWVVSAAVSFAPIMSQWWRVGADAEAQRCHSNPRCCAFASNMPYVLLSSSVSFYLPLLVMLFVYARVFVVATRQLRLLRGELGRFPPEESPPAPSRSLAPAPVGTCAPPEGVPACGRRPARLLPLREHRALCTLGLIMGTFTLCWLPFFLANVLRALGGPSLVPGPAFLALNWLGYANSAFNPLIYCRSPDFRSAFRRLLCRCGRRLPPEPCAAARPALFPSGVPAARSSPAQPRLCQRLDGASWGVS
pEC50 here: minus log base 10 of the concentration, concentration in moles per litre.

Some entries whose results are on file:
O=C(Cn1cnc2ccccc2c1=O)Nc1ccc(C[C@@H]2CC[C@H]([C@H](O)c3ccccc3)N2)cc1 8.77
O=C(Cn1ncccc1=O)Nc1ccc(C[C@@H]2CC[C@H]([C@H](O)c3ccccc3)N2)cc1 8.32
O=C(Cn1ccccc1=O)Nc1ccc(C[C@@H]2CC[C@H]([C@H](O)c3ccccc3)N2)cc1 8.37
O=C(Cn1cccnc1=O)Nc1ccc(C[C@@H]2CC[C@H]([C@H](O)c3ccccc3)N2)cc1 8.66
Nc1nc(CC(=O)Nc2ccc(C[C@@H]3CC[C@H]([C@H](O)c4ccccc4)N3)cc2)cs1 9.05

Now turn to the next molecule.
Q) Specify the recorded pEC50 for C[C@@H](C(=O)Nc1ccc(C[C@@H]2CC[C@H]([C@H](O)c3ccccc3)N2)cc1)n1ncccc1=O , system: Beta-3 adrenergic receptor (Homo sapiens, UniProt P13945).
A) 8.57

====

# Tested on: MDR1 (human)
# TEST_NAME: Apparent permeability of the compound in pig LLC-PK1 cells expressing human MDR1 at 5 uM measured at 3 hrs by LC/MS/MS analysis
# Type: ADME, cell-based, Sus scrofa
PROPERTY_LABEL: Papp at 3 h, 5 µM (×10⁻⁶ cm/s)
Numeric only. Scale: ×10⁻⁶ cm/s

Q) Fill in reported Papp at 3 h, 5 µM for this entry: O=C(Nc1ccc(C[C@@H]2CC[C@H]([C@H](O)c3ccccc3)N2)cc1)[C@@H]1CCc2nccc(=O)n21
A) 2.4

====

# TEST_NAME: Oral bioavailability in rat at 2 mg/kg
# Format: ADME, organism-based
# EXPERIMENTAL_PARAMETERS: in vivo
Overview of recorded bioavailability for various compounds
Respond with the bare value in %.

O=C(Nc1ccc(C[C@@H]2CC[C@H]([C@H](O)c3ccccc3)N2)cc1)[C@@H]1CCc2cccc(=O)n21 21
O=C(Cn1ncccc1=O)Nc1ccc(C[C@@H]2CC[C@H]([C@H](O)c3ccccc3)N2)cc1 14
O=S(=O)(Nc1ccc(CCNC[C@H](O)c2cccnc2)cc1)c1ccc(-c2nc(-c3ccc(C(F)(F)F)cc3)cs2)cc1 17

Pending compound:
Q) Give the value of bioavailability reported for the following: O=C(Cn1cccnc1=O)Nc1ccc(C[C@@H]2CC[C@H]([C@H](O)c3ccccc3)N2)cc1
A) 1

====

# SYSTEM_TESTED: Beta-3 adrenergic receptor (Homo sapiens)
# TEST_NAME: Agonist activity at human adrenergic beta3 receptor expressed in CHO cells assessed as accumulation of cAMP after 30 mins by TR-FRET assay in presence of 40% serum relative to (R)-(-)-isoproterenol
# Assay type: functional, cell-based
# Sequence (P13945 whole entry, looked up): as the sequence (P13945 whole entry) above
PROPERTY_LABEL: max activation (%)
Kindly answer with a numeric value in %, unit omitted.

Some entries whose results are on file:
O=S(=O)(Nc1ccc(CCNC[C@H](O)c2cccnc2)cc1)c1ccc(-c2nc(-c3ccc(C(F)(F)F)cc3)cs2)cc1 106
O=C(Nc1ccc(C[C@@H]2CC[C@H]([C@H](O)c3ccccc3)N2)cc1)[C@@H]1CCc2nccc(=O)n21 101
C[C@@H](C(=O)Nc1ccc(C[C@@H]2CC[C@H]([C@H](O)c3ccccc3)N2)cc1)n1ncccc1=O 98

Q) Return reported max activation. Input molecule: O=C(Cn1ncccc1=O)Nc1ccc(C[C@@H]2CC[C@H]([C@H](O)c3ccccc3)N2)cc1
A) 96
